molecular target: human growth hormone secretagogue receptor (hGHS-R1a) (Homo sapiens, UniProt Q92847); test: Competitive radioligand binding assay (ghrelin receptor), standard method A; conditions: binding activity at the human ghrelin receptor, standard method A
Sequence (Q92847 whole entry): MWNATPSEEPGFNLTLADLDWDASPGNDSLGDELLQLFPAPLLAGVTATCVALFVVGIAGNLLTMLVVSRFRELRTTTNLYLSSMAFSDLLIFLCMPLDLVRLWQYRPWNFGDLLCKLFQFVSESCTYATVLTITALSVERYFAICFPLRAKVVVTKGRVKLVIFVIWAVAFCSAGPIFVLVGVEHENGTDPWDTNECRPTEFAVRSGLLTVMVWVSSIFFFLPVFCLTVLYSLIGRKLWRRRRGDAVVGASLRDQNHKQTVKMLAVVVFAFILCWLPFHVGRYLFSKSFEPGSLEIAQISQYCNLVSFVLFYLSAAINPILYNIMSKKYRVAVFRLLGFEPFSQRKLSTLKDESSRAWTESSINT
pKi: −log10 of the molar value.
readout: pKi

>  <compound>
CC1C(=O)NC(Cc2ccc(F)cc2)C(=O)NCCCc2c(F)cccc2OCCNC(C2CC2)C(=O)N1C (stereo not shown)

>  <assay_target>
human growth hormone secretagogue receptor (hGHS-R1a) (Homo sapiens, UniProt Q92847)

>  <recorded_result>
≥ 8.00

$$$$
>  <compound>
CC1CNC(C2CC2)C(=O)N(C)C(C)C(=O)NC(CC2CCCC2)C(=O)NCCCC2CCCCC2O1 (mixture of isomers)

>  <assay_target>
human growth hormone secretagogue receptor (hGHS-R1a) (Homo sapiens, UniProt Q92847)

>  <recorded_result>
≥ 9.00

$$$$
>  <compound>
CC(C)C[C@H]1NC(=O)[C@@H](C)N(C)C(=O)[C@H](C2CC2)NC[C@@H](C)Oc2c(F)cccc2CCCNC1=O

>  <assay_target>
human growth hormone secretagogue receptor (hGHS-R1a) (Homo sapiens, UniProt Q92847)

>  <recorded_result>
≥ 7.00

$$$$
>  <compound>
C[C@@H]1CN[C@@H](C2CC2)C(=O)N(C)[C@H](C)C(=O)N[C@H](Cc2ccc(O)c(F)c2)C(=O)NCCCc2ccccc2O1

>  <assay_target>
human growth hormone secretagogue receptor (hGHS-R1a) (Homo sapiens, UniProt Q92847)

>  <recorded_result>
≥ 7.00

$$$$
